Target: T1, MPP6, Q9NZW5
T1 sequence (Q9NZW5 125-219, limits assumed, looked up): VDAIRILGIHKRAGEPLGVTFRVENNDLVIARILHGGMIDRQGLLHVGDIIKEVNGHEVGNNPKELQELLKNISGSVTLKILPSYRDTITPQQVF
Assay: holdup assay
Set-up: key: below the threshold = too weak to quantify, mostly under pKd 3.1 to 4
Conditions: plain residues with an end cap or a label only (N-terminal biotin on a linker: ado-ado)
measured_quantity: pKd

YNNCLEILRV [DCAF7, P61962]	below the threshold
EALLQMESVA [CAVIN3, Q969G5]	below the threshold
PPYRHRNTVV [ERBB4, Q15303]	below the threshold
PKRSFIESNV [TANC1, Q9C0D5]	3.76
LGRSTPQSEV [DGKH, Q86XP1]	3.71
RRRESYSTTV [EVI5, O60447]	below the threshold
EVEEFPETSV [TRPV3, Q8NET8]	below the threshold
LKVPPEERLI [CRB2, Q5IJ48]	3.68
PEYLGLDVPV [ERBB2, P04626]	below the threshold
PRAEAEDSFL [PDGFRB, P09619]	3.93

In: Look up pKd: VKPQVSESKL [ACOT8, O14734]
Out: below the threshold

In: // query: SAKVRTVTSV [RASL11B, Q9BPW5]
Out: below the threshold

In: // query: RHGSCVETSL [TMEM151B, Q8IW70]
Out: below the threshold

In: // query: TACCHSETVV [TGFA, P01135]
Out: below the threshold

In: // query: LSEFKAMDSI [CTNNA1, P35221]
Out: below the threshold

In: // query: KKAPTNEFYA [SDC4, P31431]
Out: 3.91
